# testMethodNotes: Volume of distribution at steady state in Sprague-Dawley rat at 2 mg/kg, iv by LC-MS/MS analysis
# Format: ADME, organism-based
# Design: dose 2 mg/kg, route intravenous
# cond: in vivo, read-out: Vdss
Recorded Vd for the following molecules
propertyMeasured: Vd (L/kg)

>>> print(df.to_string())
                                inputsmiles  propertymeasured  readoutunit  reportedvalue
0  O=C(Nc1ccc(F)cc1)N1CCc2ccccc2[C@H]1c1ccc(C(F)(F)F)cc1                Vd         L/kg           15.3
1  O=C(Nc1ccc(F)cc1)N1CCc2ccccc2[C@@H]1c1ccc(C(F)(F)F)cc1                Vd         L/kg           15.8

###

Recorded microsomal CLint at 1 µM for the following compounds
# testMethodNotes: Intrinsic clearance in CD1 rat liver microsomes at 1 uM after 30 mins
# Type: ADME, Microsome
# cond: read-out: CLH
propertyMeasured: microsomal CLint at 1 µM (µL/min/mg)

In [3]: df
Out[3]:
                                    compound  modifier  reportedvalue
 0  CC(C)N1CCc2sccc2C1c1ccc(C(F)(F)F)cc1 (stereo unspecified)         <             14
 1  CCCC1c2ccsc2CCN1C(=O)Nc1ccc(Cl)cc1 (stereo unspecified)         >            399
 2  O=C(Nc1ccc(F)cc1)N1CCc2scnc2C1c1ccc(C(F)(F)F)cc1 (stereo unspecified)         =            110
 3  O=C(Nc1ccccc1)N1CCc2sccc2C1c1cccc(Cl)c1 (stereo unspecified)         >            399
 4  O=C(Nc1ccc(F)cc1)N1CCc2sccc2C1c1ccc(C(F)(F)F)cc1 (stereo unspecified)         =            178
 5  O=C(Nc1ccccc1)N1CCc2sccc2C1c1ccc(Cl)cc1 (stereo unspecified)         >            399
 6  O=C(c1ccc(F)cc1)N1CCc2sccc2C1c1ccc(C(F)(F)F)cc1 (stereo unspecified)         =            248
 7  O=C(Nc1ccc(F)cc1)N1CCc2cccc(F)c2C1c1ccc(C(F)(F)F)cc1 (stereo unspecified)         =             43
 8  O=C(Nc1ccc(F)cc1)N1Cc2ccccc2C1c1ccc(C(F)(F)F)cc1 (stereo unspecified)         =             64
 9  O=C(Nc1ccccc1)N1CCc2sccc2C1c1ccc(F)cc1 (stereo unspecified)         >            399
10  O=C(NC1CC1)N1CCc2sccc2C1c1ccc(C(F)(F)F)cc1 (stereo unspecified)         >            399

###

# testMethodNotes: Oral bioavailability in Sprague-Dawley rat at 10 mg/kg by LC-MS/MS analysis
# Format: ADME, organism-based
# cond: in vivo
propertyMeasured: bioavailability (%)

                                inputsmiles  propertymeasured  reportedvalue
0  O=C(Nc1ccc(F)cc1)N1CCc2ccccc2[C@H]1c1ccc(C(F)(F)F)cc1   bioavailability             57

###

# testMethodNotes: AUC (infinity) in Sprague-Dawley rat at 2 mg/kg, iv by LC-MS/MS analysis
# Format: ADME, organism-based
# Set-up: time infinity, dose 2 mg/kg, route intravenous
# cond: plasma
Recorded AUC(0-inf) for the following molecules
propertyMeasured: AUC(0-inf) (ng·h/mL)

In [3]: df
Out[3]:
                                inputsmiles  propertymeasured  reportedvalue
0  O=C(Nc1ccc(F)cc1)N1CCc2ccccc2[C@@H]1c1ccc(C(F)(F)F)cc1        AUC(0-inf)            347
1  O=C(Nc1ccc(F)cc1)N1CCc2ccccc2[C@H]1c1ccc(C(F)(F)F)cc1        AUC(0-inf)            763
